- condition info: buffer; pH 7.4; 200.0 µM
metric: solubility kinetic

Example entries and their recorded answers appear below.
Query: Could you please provide reported solubility kinetic for COC(=O)c1ccc(N2CCCCC2)c(N)c1 ? Thanks!
Response: > 35.1 µg/mL

Query: Look up solubility kinetic of CC(=O)c1sc(NC(=O)CCCOc2ccccc2C)nc1C and report it.
Response: < 0.4 µg/mL

Query: Provide measured solubility kinetic value, entry: Cc1cccc2c3c([nH]c12)C(=O)CC(C)(C)S3
Response: < 0.5 µg/mL

Proceeding to the next compound to report its solubility kinetic.
Query: Output solubility kinetic of C=CCNC(=O)CSCc1ccc(Br)cc1
Response: > 45 µg/mL

----------
# solubility kinetic per record follows
- condition info: buffer; pH 7.4; 200.0 µM

Example results:
Query: Please give measured solubility kinetic of the following entry: Cn1cccc1C(=O)OCC(=O)NCCc1ccccc1
Response: > 42.9 µg/mL

Query: Answer with the recorded solubility kinetic for the compound listed here: COc1ccccc1CNC(=O)COC(=O)Cc1cccs1
Response: > 47.9 µg/mL

Query: Note down solubility kinetic recorded for Cc1c(NC(=S)NC(=O)c2ccc(Cl)cc2)c(=O)n(-c2ccccc2)n1C
Response: > 60.1 µg/mL

More entries:
Query: State its solubility kinetic for this compound: CCN(C(=O)COc1ncnc2ccccc12)C1CCCCC1
Response: > 47 µg/mL

Query: Let me know recorded solubility kinetic for Cl.O=C(CN1CCCC1)Nc1cccc(Cl)c1 , thanks.
Response: > 41.3 µg/mL

----------
Entries and their measured solubility kinetic follow.
- condition info: buffer; pH 7.4; 200.0 µM

As a guide, the following entries are already answered.
Query: Check the records and state solubility kinetic for CCOc1ccc(N2C(=O)/C(=C/c3ccc(C)o3)C(=O)NC2=S)cc1
Response: > 53.5 µg/mL

Query: Please report the measured solubility kinetic for O=C(Oc1c(-c2ccccc2)c(=O)n2c3c(cccc13)CC2)c1ccc(Cl)cc1
Response: < 0.9 µg/mL

Query: Read off the recorded solubility kinetic for CCCN1CCN(CC(=O)Nc2nnc(CC)s2)CC1
Response: > 44.6 µg/mL

// below: solubility kinetic requested for another molecule
Query: Provide one value: measured solubility kinetic of O=C(/C=C/c1ccc(Cl)cc1)NCCCN1CCOCC1
Response: > 46.3 µg/mL

----------
- condition info: buffer; pH 7.4; 200.0 µM
metric: solubility kinetic

Query: Provide only the value of recorded solubility kinetic for O=C1c2ccccc2C(O)N1c1ccccc1 (centres undefined)
Response: > 33.8 µg/mL

Query: Read off the recorded solubility kinetic for COc1ccc(N=C(C)c2sc3ccccc3c2O)cc1
Response: < 0.6 µg/mL

Query: Return solubility kinetic (reported value) for this molecule: COc1ccc(NC(=O)c2cc(C)no2)cc1
Response: > 34.8 µg/mL

Query: Give me measured solubility kinetic, please, for this molecule: O=C(CSc1nc2ccccc2c(=O)n1CCCO)NC1CC1
Response: > 50 µg/mL

Query: State, in one line, measured solubility kinetic of Cc1cccc(C)c1NC(=O)CN(C)C(=O)CCC(=O)N1CCOCC1
Response: > 54.2 µg/mL

Query: Check the records and state solubility kinetic for CCS(=O)(=O)N1CCC(C(=O)O)CC1
Response: > 33.2 µg/mL

Query: Given the molecule Cc1cc(C)cc(NC(=O)C(=O)NCCCN2CCOCC2)c1 , write its reported solubility kinetic.
Response: > 47.9 µg/mL

Query: Identify measured solubility kinetic corresponding to CCCNC(=O)Cn1nc(C(F)(F)F)c2c1CCC2
Response: > 41.3 µg/mL

New cases:
Query: Look up solubility kinetic of C=CCOc1ccc(C(=O)n2cc(C(=O)OC)c3ccccc32)cc1 and report it.
Response: < 0.7 µg/mL

Query: Write down solubility kinetic measured for item Cc1cc(S(=O)(=O)Nc2c(C)nn(C)c2C)c(Cl)cc1Cl
Response: > 52.2 µg/mL

Query: Input COc1ccc(Cl)cc1NC(=O)NN1CCN(C)CC1 , output reported solubility kinetic.
Response: > 44.8 µg/mL

Data credit: PubChem BioAssay AID1996
